These data points were gathered from patent US5607970A.

Measured inhibition at 150 µg/mL, listed per entry.
Target: ACAT (AcylCoA-Cholesterolacyltransferase) (Oryctolagus cuniculus, UniProt G1SFD9)
Construct: from tissue; host or cells: rabbit small intestine epithelium, microsome fraction
Sequence (G1SFD9 1-524): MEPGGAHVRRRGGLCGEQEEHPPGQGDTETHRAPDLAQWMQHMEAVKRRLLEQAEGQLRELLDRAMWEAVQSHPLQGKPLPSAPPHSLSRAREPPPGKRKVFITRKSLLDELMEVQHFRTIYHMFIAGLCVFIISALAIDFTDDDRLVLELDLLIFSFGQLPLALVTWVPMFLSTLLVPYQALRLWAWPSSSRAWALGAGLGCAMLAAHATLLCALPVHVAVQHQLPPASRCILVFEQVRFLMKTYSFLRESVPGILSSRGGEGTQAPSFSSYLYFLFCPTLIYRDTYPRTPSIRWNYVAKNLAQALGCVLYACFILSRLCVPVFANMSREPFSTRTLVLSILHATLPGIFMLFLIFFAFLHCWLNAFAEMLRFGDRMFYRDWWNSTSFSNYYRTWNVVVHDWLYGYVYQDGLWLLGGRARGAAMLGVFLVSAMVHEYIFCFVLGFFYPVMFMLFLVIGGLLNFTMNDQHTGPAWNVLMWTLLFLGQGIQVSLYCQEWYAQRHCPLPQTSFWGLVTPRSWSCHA
Assay: ACAT inhibitory activity in test tube (method of Heider et al., [1-14C]oleylCoA, small intestine epithelium microsome fraction)
Type: biochemical, rabbit
Settings: read-out: Inhibitory Ratio (%)
Quick note: give the figure in %, leave out the unit.

{"MOLECULE": "CCCCCCCC/C=C\\CCCCCCCC(=O)OCC(O)CO (stereo not shown)", "inhibition at 150 µg/mL [%]": 92}
{"MOLECULE": "CCCCCCCC/C=C\\CCCCCCCC(=O)OC(CO)CO", "inhibition at 150 µg/mL [%]": 94}
{"MOLECULE": "CC/C=C\\C/C=C\\C/C=C\\CCCCCCCC(=O)OCC(O)CO (stereo not shown)", "inhibition at 150 µg/mL [%]": 86}

Moving on to another molecule below.
Observed inhibition at 150 µg/mL, ACAT (AcylCoA-Cholesterolacyltransferase) (Oryctolagus cuniculus, UniProt G1SFD9), CCCCCCCCCCCCCCCCCC(=O)OCC(O)CO (stereo not shown) : 45

----------
biological target: ACAT (AcylCoA-Cholesterolacyltransferase) (Oryctolagus cuniculus, UniProt G1SFD9); construct: from tissue; host or cells: rabbit small intestine epithelium, microsome fraction; test: ACAT inhibitory activity in test tube (method of Heider et al., [1-14C]oleylCoA, small intestine epithelium microsome fraction); assay type: biochemical, rabbit; conditions: read-out: Inhibitory Ratio (%)
PROPERTY LABEL: inhibition at 100 µg/mL (%)
Quick note: give the figure in %, leave out the unit.

{"COMPOUND": "CCCCCCCC/C=C\\CCCCCCCC(=O)OC(CO)CO", "RESULT UNIT": "%", "inhibition at 100 µg/mL": 82}

# inhibition at 100 µg/mL of CCCCCCCC/C=C\CCCCCCCC(=O)OCC(O)CO (stereo not shown) = 81

# inhibition at 100 µg/mL of CCCCCCCCCCCCCCCCCC(=O)OCC(O)CO (stereo not shown) [1-stearoylglycerol] = 38

# inhibition at 100 µg/mL of CC/C=C\C/C=C\C/C=C\CCCCCCCC(=O)OCC(O)CO (stereo not shown) [1-linolenoylglycerol] = 76
